Reported pIC50 is given for each of the following binders.
target: HLA-DRB1*1301 (human); assay: competition binding; settings: modification not given
pIC50: −log10 of the molar value.
attribute measured: pIC50

• TSVSRPGRGEPRFIA [p3] = < 4.00
• KDYIALKEDLRSWTA [p25] = 5.56
• MRYFFTSVSRPGRGE [p2*] = 6.40
• RCWALSFYPAEITLT [p40] = < 4.00
• YAYDGKDYIALKEDL [p24] = < 4.00
• VRFDSDAASQRMEPR [p8*] = < 4.00
• LTWQRDGEDQTQDTE [p43] = < 4.00
• VEWLRRYLENGKETL [p35*] = 5.09
• PEYWDGETRKVKAHS [p11] = < 4.00
• TELVETRPAGDGTFQ [p44] = < 4.00
• HRVDLGTLRGYYNQS [p13*] = < 4.00
• RGYYNQSEAGSHTVQ [p16*] = < 4.00
• EGLPKPLTLRWEPSS [p49] = < 4.00
• GTFQKWAAVVVPSGQ [p45*] = < 4.00
• AAVVVPSGQEQRYTC [p47] = 5.13
• ADMAAQTTKHKWEAA [p29] = 5.42
• AEITLTWQRDGEDQT [p42] = < 4.00
• TCVEWLRRYLENGKE [p34*] = 5.30
• RKVKAHSQTHRVDLG [p12] = 6.41

FYI, the data here is from patent US20110038881A1.
